Target: VEGFR-2 (Homo sapiens, UniProt P35968)
Sequence (P35968 20-1356): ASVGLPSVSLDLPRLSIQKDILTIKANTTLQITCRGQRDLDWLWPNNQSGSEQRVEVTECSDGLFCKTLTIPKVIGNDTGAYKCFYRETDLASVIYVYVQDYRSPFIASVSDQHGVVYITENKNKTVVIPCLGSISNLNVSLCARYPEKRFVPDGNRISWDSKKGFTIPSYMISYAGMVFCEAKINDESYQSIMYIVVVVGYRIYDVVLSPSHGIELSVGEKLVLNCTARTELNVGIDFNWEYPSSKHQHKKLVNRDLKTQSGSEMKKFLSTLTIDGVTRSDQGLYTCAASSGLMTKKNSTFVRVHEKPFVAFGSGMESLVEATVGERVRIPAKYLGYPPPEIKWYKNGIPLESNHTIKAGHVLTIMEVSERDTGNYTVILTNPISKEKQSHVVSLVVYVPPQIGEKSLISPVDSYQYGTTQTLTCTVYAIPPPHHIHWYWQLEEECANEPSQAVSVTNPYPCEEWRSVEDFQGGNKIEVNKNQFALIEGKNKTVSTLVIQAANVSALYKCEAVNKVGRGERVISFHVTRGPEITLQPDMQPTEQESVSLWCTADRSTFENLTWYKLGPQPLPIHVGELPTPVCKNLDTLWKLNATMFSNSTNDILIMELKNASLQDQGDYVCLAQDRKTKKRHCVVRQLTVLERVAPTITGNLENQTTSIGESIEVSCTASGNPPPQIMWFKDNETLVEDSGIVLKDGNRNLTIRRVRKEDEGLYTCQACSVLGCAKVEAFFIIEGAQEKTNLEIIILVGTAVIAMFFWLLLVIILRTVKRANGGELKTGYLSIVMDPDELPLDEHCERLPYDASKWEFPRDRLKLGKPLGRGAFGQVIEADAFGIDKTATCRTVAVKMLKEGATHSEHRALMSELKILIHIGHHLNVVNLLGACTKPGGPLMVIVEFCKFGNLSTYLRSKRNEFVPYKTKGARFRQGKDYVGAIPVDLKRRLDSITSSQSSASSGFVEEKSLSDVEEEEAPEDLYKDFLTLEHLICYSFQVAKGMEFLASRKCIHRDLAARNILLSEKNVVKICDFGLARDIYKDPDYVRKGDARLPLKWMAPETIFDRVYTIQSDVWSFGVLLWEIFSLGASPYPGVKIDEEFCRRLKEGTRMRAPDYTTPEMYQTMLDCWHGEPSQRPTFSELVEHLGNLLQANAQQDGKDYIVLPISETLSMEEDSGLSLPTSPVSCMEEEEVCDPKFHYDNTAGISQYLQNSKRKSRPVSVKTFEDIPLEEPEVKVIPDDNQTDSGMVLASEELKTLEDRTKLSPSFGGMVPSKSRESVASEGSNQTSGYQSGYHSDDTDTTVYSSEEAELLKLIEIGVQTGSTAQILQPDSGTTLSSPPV
This section presents molecules with their documented pIC50 values.
Scale note: pIC50 = -log10(concentration in M).

Sample records with pIC50:
[
  {
    "molecule": "O=C(CN1C(=O)SC(=Cc2ccc(Cl)cc2Cl)C1=O)Nc1ccc(C(=O)Nc2cccc(Cl)c2)cc1 [Compound 21]",
    "pIC50": 5.78
  },
  {
    "molecule": "O=C(CN1C(=O)SC(=Cc2ccc(Cl)cc2Cl)C1=O)Nc1ccc(C(=O)NNC(=O)c2ccccc2)cc1 [Compound 22]",
    "pIC50": 7.10
  },
  {
    "molecule": "O=C(CN1C(=O)SC(=Cc2ccccc2Cl)C1=O)Nc1ccc(C(=O)NNC(=O)c2cccc(Cl)c2)cc1 [Compound 19]",
    "pIC50": 6.49
  },
  {
    "molecule": "O=C(CN1C(=O)SC(=Cc2ccc(Cl)cc2Cl)C1=O)Nc1ccc(C(=O)NNC(=O)c2cccc(Cl)c2)cc1 [Compound 23]",
    "pIC50": 6.48
  }
]

// query Return the recorded pIC50 value; entry: O=C(CN1C(=O)SC(=Cc2ccc(Cl)cc2Cl)C1=O)Nc1ccc(C(=O)NNC(=O)c2ccccc2O)cc1 [Compound 24]
// result 6.69

// query Return the recorded pIC50 value; entry: O=C(CN1C(=O)SC(=Cc2ccccc2Cl)C1=O)Nc1ccc(C(=O)NNc2ccccc2)cc1 [Compound 18]
// result 5.57

// query Return the recorded pIC50 value; entry: O=C(CN1C(=O)SC(=Cc2ccccc2Cl)C1=O)Nc1ccc(C(=O)NNC(=O)c2ccccc2O)cc1 [Compound 20]
// result 6.68
